B1: library; a variant is named by its letters at N, in order (parent)
chain: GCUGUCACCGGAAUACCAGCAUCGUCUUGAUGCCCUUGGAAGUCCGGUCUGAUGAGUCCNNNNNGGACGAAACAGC

variants of: B1; test: normalized RNA/DNA level without ligand (relative to sTRSVctl = 100) (log10 (% of sTRSVctl)); higher = less ribozyme self-cleavage, higher mRNA level; conditions: HEK293T, reporter: mCherry (pCS4076), ligand present: no
quantity.measured: normalized RNA/DNA level without ligand (log10)
Number, no unit, nothing else.

* CUGUA | 1.61

Task item: Tell me normalized RNA/DNA level without ligand (log10) reported for ACUGG
Reply: 1.91

Task item: Tell me normalized RNA/DNA level without ligand (log10) reported for GCCCU
Reply: 1.98

Task item: Tell me normalized RNA/DNA level without ligand (log10) reported for CAUAC
Reply: 1.8

Task item: Tell me normalized RNA/DNA level without ligand (log10) reported for CAGUA
Reply: 1.27
